- assay_system: T1, EsCas13d, nuclease-dead (Eubacterium siraeum, UniProt B0MS50, R295A;H300A;R849A;H854A)
- T1 sequence: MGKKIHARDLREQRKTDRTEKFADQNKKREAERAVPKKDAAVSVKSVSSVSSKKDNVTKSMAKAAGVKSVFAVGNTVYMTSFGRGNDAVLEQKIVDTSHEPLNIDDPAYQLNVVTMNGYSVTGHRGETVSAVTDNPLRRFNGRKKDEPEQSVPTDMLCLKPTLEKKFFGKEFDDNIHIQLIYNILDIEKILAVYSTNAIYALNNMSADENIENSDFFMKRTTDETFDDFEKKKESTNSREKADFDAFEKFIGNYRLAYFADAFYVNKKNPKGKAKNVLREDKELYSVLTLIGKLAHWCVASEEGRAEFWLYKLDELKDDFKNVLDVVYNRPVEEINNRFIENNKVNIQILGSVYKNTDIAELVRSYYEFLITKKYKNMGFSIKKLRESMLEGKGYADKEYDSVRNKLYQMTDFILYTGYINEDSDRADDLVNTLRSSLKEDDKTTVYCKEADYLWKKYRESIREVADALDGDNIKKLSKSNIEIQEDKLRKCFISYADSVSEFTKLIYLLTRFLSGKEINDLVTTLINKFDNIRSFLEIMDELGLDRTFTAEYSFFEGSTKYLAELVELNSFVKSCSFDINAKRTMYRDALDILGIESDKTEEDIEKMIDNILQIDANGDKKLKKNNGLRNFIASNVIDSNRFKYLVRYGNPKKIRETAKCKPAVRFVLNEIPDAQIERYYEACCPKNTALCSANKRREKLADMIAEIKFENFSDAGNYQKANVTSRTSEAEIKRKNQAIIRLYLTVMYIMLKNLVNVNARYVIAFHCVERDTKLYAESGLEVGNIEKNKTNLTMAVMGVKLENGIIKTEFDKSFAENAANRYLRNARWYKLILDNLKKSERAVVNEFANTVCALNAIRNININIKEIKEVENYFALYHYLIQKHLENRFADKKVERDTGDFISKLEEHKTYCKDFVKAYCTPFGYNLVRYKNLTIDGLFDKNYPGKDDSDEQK
- protocol: crRNA (strand 1, pre-loaded); Mg2+; 40 mM Tris-HCl pH 7.5, 150 mM NaCl, 6 mM MgCl2, 1 mM DTT, 0.1% Tween-20, 0.2 mg/ml BSA; 25 C; 10 min per concentration, then washed
- test_conditions: tags: His6-TwinStrep-SUMO cleaved; N-terminal SNAP kept (SNAP-Surface 488); label: 3' end held by stalled T7 RNA polymerase
The entries below come with measured Kd values attached.

### Prompt Can you share its Kd? I mean this binder: target 2 MT 5'PFS ACU 3'PFS UGU (mixed) RNA 1: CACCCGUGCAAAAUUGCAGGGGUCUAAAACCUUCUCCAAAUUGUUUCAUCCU RNA 2: GGGAAUGGAUCCACAUCUACGAAUUCACUAGGAUGAAACAAUUUGGAGAAGUGUAGAUCGGAAGAGCACACGU
### Response 8.1 nM

### Prompt Can you share its Kd? I mean this binder: target 1 insC 3' of 15,insA 3' of 10 (mixed) RNA 1: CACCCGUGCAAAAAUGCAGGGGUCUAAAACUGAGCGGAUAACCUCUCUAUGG RNA 2: GGGAAUGGAUCCACAUCUACGAAUUCGUACCAUAGAGCAGGUUAAUCCGCUCACCGAGAUCGGAAGAGCACACGU
### Response 65 nM

### Prompt Can you share its Kd? I mean this binder: target 1 insA 3' of 22,insC 3' of 13 (mixed) RNA 1: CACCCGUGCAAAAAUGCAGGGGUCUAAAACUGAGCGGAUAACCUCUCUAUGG RNA 2: GGGAAUGGAUCCACAUCUACGAAUUCGUACACAUAGAGAGCGUUAUCCGCUCACCGAGAUCGGAAGAGCACACGU
### Response 22 nM

### Prompt Can you share its Kd? I mean this binder: target 1 insG 3' of 9,insA 3' of 8 (mixed) RNA 1: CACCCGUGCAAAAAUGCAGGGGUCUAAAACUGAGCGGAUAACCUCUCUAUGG RNA 2: GGGAAUGGAUCCACAUCUACGAAUUCGUACCAUAGAGAGGUUAGUACCGCUCACCGAGAUCGGAAGAGCACACGU
### Response 19.6 nM
